Entries annotated with measured pKd
Target: T1, C-C chemokine receptor 1 (C-C CKR-1) (human, UniProt P32246 1-355)
T1 construct: Transiently expressed from pRK5 in human embryonic kidney 293 cells; also called JOSH1; cloned C-C CKR-1
T1 sequence: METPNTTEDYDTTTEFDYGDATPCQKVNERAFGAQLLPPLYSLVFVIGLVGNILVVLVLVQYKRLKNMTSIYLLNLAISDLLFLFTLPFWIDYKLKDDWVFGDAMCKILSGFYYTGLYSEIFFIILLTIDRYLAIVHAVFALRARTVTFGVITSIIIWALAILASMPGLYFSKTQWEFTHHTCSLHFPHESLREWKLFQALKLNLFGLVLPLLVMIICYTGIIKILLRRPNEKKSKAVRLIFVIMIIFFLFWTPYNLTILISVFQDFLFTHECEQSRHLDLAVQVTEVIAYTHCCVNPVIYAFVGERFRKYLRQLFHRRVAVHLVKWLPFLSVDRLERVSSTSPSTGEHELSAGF
Experiment: heterologous displacement of 125I-HuMIP-1α on 293 cells expressing C-C CKR-1, Scatchard analysis
pKd: −log10 of the molar value.

binder	pKd
human MIP-1β (HuMIP-1β) (ligand, UniProt P13236 24-92, looked up, also called HuMIP-1b; MIP-lb) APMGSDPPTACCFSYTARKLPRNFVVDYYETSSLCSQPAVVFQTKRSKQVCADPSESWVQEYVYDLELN	6.63
RANTES (Regulated on Activation, Normal T Expressed and Secreted) (ligand, UniProt P13501 24-91, looked up, ends and bridges not checked; also: 125I-labeled where used as tracer) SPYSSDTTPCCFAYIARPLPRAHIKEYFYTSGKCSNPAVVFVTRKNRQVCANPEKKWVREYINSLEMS	6.33
murine MIP-1α (ligand, UniProt P10855 24-92, looked up) APYGADTPTACCFSYSRKIPRQFIVDYFETSSLCSQPGVIFLTKRNRQICADSKETWVQEYITDLELNA	8.38
